Molecular target: T1, ZFP SBS#1470 (synthetic)
T1 chain: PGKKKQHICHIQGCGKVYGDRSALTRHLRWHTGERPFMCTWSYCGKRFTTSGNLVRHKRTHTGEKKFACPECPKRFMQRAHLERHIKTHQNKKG
Assay: EMSA
Conditions: tags: MBP fusion
parameter_measured: Kd
State the value, then name its unit.

Param item = GGTGATGTC (dsDNA) DNA 1: GGTGATGTC DNA 2: GACATCACC ; retrieve measured Kd.
0.156 nM
